Ref: patent US20200323888A1

Target: T1, MBP-HishNAA80 fusion protein (MBP-Naa80) (human, UniProt Q93015-2 1-308)
T1 sequence (looked up): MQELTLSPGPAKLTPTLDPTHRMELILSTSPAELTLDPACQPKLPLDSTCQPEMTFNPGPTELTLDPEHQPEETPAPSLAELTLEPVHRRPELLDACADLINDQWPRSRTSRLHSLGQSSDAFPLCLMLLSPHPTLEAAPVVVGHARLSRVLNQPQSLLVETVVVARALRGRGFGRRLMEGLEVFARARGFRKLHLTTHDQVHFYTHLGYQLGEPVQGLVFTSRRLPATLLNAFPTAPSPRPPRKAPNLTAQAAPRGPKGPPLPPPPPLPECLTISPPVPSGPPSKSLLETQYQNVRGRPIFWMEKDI
Test: cell-based or functional assay
CoA = coenzyme A
Readout name: IC50 (µM), Nt-acetylation inhibition

Reference set (6 entries):
[[record]]
binder = "{CoA-Ac}-EEEL-NH2 [EEEL (Naa80 bisubstrate analogue inhibitor)]"
measured_value = "1.16 µM"

[[record]]
binder = "{CoA-Ac}-EDQL-NH2 [EDQL (Naa80 bisubstrate analogue inhibitor)]"
measured_value = "0.85 µM"

[[record]]
binder = "{CoA-Ac}-MDEL-NH2 [CoA-Ac-MDEL-NH2]"
measured_value = "1.26 µM"

[[record]]
binder = "{CoA-Ac}-ESEL-NH2 [ESEL (Naa80 bisubstrate analogue inhibitor)]"
measured_value = "11.5 µM"

[[record]]
binder = "{CoA-Ac}-PDEL-NH2 [PDEL (Naa80 bisubstrate analogue inhibitor)]"
measured_value = "13.4 µM"

[[record]]
binder = "{CoA-Ac}-EEDI-NH2 [EEDI (Naa80 bisubstrate analogue inhibitor)]"
measured_value = "0.17 µM"


Attention now shifts to the item below.
Please look up its IC50 (µM), Nt-acetylation inhibition: {CoA-Ac}-EDEL-NH2 [EDEL (Naa80 bisubstrate analogue inhibitor)]
0.15 µM
